Origin of the recorded values: patent US11891445

Biological target: T1, recombinant human B7-H3 protein with a histidine tag linked to the C terminal (2318-B3/CF, R&D Systems) (human) (UniProt Q5ZPR3)
T1 sequence (looked up): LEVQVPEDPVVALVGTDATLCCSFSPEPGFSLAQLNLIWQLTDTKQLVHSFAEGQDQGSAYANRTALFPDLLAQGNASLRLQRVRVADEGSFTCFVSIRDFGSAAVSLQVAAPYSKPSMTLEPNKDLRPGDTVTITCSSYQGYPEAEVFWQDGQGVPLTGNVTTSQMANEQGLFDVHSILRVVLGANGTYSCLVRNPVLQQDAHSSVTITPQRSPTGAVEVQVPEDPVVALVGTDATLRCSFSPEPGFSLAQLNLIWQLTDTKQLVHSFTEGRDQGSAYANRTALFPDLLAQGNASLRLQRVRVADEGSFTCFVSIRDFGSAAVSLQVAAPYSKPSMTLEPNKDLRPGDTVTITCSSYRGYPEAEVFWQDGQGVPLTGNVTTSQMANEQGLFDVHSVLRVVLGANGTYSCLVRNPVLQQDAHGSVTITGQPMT
Experiment: ELISA, soluble scFv on coated B7-H3-His 100 ng per well, anti-HA HRP
readout-kind: absorbance at 450 nm
Lab note: record just the number, no unit beside it.

anti-B7-H3 scFv clone D8G M1 (soluble monoclonal scFv) (scFv, part only; not given: linker, domain order and HA tag, V domains shown, not shown: another chain or arm of the molecule; small tags and cut ends) VH: EVQLLESGGGLVQPGGSLRLSCAASGFTFSSYSMSWVRQAPGKGLEWVSGIYSDASNTYYADSVKGRFTISRDNSKNTLYLQMNSLRAEDTAVYYCAKMLHRFDYWGQGTLVTVSS VL: QSVLTQPPSASGTPGQRVTISCSGSSSNIGSNSVTWYQQLPGTAPKLLIYADSQRPSGVPDRFSGSKSGTSASLAISGLRSEDEADYYCGTWDSSLNAYVFGGGTKLTVL	1

Let us examine a further case.
Please look up its absorbance at 450 nm: anti-B7-H3 scFv clone D8G (soluble monoclonal scFv) (scFv, part only; not given: linker, domain order and HA tag, V domains shown, not shown: another chain or arm of the molecule; small tags and cut ends) VH: EVQLLESGGGLVQPGGSLRLSCAASGFTFSSYSMSWVRQAPGKGLEWVSGIYSDGSNTYYADSVKGRFTISRDNSKNTLYLQMNSLRAEDTAVYYCAKMLHRFDYWGQGTLVTVSS VL: QSVLTQPPSASGTPGQRVTISCSGSSSNIGSNSVTWYQQLPGTAPKLLIYADSQRPSGVPDRFSGSKSGTSASLAISGLRSEDEADYYCGTWDSSLNAYVFGGGTKLTVL 1
